ASSAY_OVERVIEW: Anticataract activity against FeCl3/H2O2-induced cataract in rat lens assessed as absence of opacificaion at 0.5 mM treated 1 hr before FeCl3/H2O2 challenge measured after 24 hrs
Format: functional, Lens of camera-type eye
Overview of recorded Activity for various compounds
# do not omit the unit; it follows the number

Consider the following illustrative entries.
{"columns": ["TEST_SMILES", "Activity"],
 "data": [
  ["NCCCC[C@H](N)C(=O)O.O=C(O)C(Oc1nn(Cc2cccc(F)c2)c2ccccc12)C(=O)O", "0%"],
  ["NCCCC[C@H](N)C(=O)O.O=C(O)C(Oc1nn(Cc2cccc(Cl)c2)c2ccccc12)C(=O)O", "0%"]
]}

query: Look up Activity: `O=C([O-])C(Oc1nn(Cc2ccccc2)c2ccccc12)C(=O)[O-].[Na+].[Na+]`
result: 0%

----------
ASSAY_OVERVIEW: Aqueous solubility of the compound
Type: physicochemical
RUN_PARAMETERS: water (aqueous)
PROPERTY_MEASURED: log10 of solubility (log10 of the value in mg/mL)
# values: log10(solubility), units mg/mL

{"columns": ["TEST_SMILES", "log10 of solubility"],
 "data": [
  ["NCCCC[C@H](N)C(=O)O.O=C(O)COc1nn(Cc2ccccc2)c2ccccc12", 1.97]
]}

# input for lookup
query: Look up log10 of solubility: `NCCCC[C@H](N)C(=O)O.O=C(O)C(Oc1nn(Cc2ccccc2)c2ccccc12)C(=O)O`
result: 2.09

----------
ASSAY_OVERVIEW: Anticataract activity against FeCl3/H2O2-induced cataract in rat lens assessed as middle degree of opacificaion at 0.5 mM treated 1 hr before FeCl3/H2O2 challenge measured after 24 hrs
Format: functional, Lens of camera-type eye
Overview of recorded Activity for various compounds
Expressed in %, but write only the number.

Consider the following illustrative entries.
{"columns": ["TEST_SMILES", "VALUE_UNIT", "Activity"],
 "data": [
  ["NCCCC[C@H](N)C(=O)O.O=C(O)C(Oc1nn(Cc2cccc(F)c2)c2ccccc12)C(=O)O", "%", 45],
  ["NCCCC[C@H](N)C(=O)O.O=C(O)C(Oc1nn(Cc2ccccc2)c2ccccc12)C(=O)O", "%", 70],
  ["O=C([O-])C(Oc1nn(Cc2ccccc2)c2ccccc12)C(=O)[O-].[K+].[K+]", "%", 50],
  ["N[C@@H](Cc1c[nH]cn1)C(=O)O.O=C(O)C(Oc1nn(Cc2ccccc2)c2ccccc12)C(=O)O", "%", 15],
  ["NCCCC[C@H](N)C(=O)O.O=C(O)COc1nn(Cc2ccccc2)c2ccccc12", "%", 40],
  ["NCCCC[C@H](N)C(=O)O.O=C(O)C(Oc1nn(Cc2cccc(Cl)c2)c2ccccc12)C(=O)O", "%", 30],
  ["O=C([O-])C(Oc1nn(Cc2cccc(F)c2)c2ccccc12)C(=O)[O-].[Na+].[Na+]", "%", 35]
]}

query: Look up Activity: `O=C([O-])C(Oc1nn(Cc2ccccc2)c2ccccc12)C(=O)[O-].[Na+].[Na+]`
result: 20

----------
ASSAY_OVERVIEW: Aqueous solubility of the compound
Type: physicochemical
RUN_PARAMETERS: water (aqueous)
PROPERTY_MEASURED: log10 of solubility (log10 of the value in mg/mL)
# values: log10(solubility), units mg/mL

{"columns": ["TEST_SMILES", "MEASUREMENT"],
 "data": [
  ["O=C([O-])C(Oc1nn(Cc2ccccc2)c2ccccc12)C(=O)[O-].[Na+].[Na+]", 0.48]
]}

query: Look up log10 of solubility: `N[C@@H](Cc1c[nH]cn1)C(=O)O.O=C(O)C(Oc1nn(Cc2ccccc2)c2ccccc12)C(=O)O`
result: 2.26

query: Lookup `N[C@@H](Cc1c[nH]cn1)C(=O)O.O=C(O)C(Oc1nn(Cc2ccc(Cl)cc2)c2ccccc12)C(=O)O`
result: 1.71

query: Lookup `NCCCC[C@H](N)C(=O)O.O=C(O)C(Oc1nn(Cc2cccc(Cl)c2)c2ccccc12)C(=O)O`
result: 2.29

query: Lookup `O=C([O-])C(Oc1nn(Cc2cccc(F)c2)c2ccccc12)C(=O)[O-].[K+].[K+]`
result: 0.38

query: Lookup `N[C@@H](Cc1c[nH]cn1)C(=O)O.O=C(O)C(Oc1nn(Cc2cccc(Cl)c2)c2ccccc12)C(=O)O`
result: 2.06
